meta.source: PubChem BioAssay (NCI)

tested on: PC-3 prostate; test: NCI tumour cell line growth inhibition, 48 h
For each record, write down the corresponding TGI.

Before answering, review these 10 worked examples.
CCCCCNC(=O)OC1CCn2c1nc1c2C(=O)C(C)=C(N2CC2)C1=O (centres undefined) ... 2.39 µM
O=NNc1nc(-c2ccccn2)nc2ccccc12 ... > 100 µM
CC(C)C12CCC3(CCC4C(C)(C(=O)O)CCCC4(C)C3C1)C(CN)C2 (centres undefined) ... > 100 µM
COc1cc(COC(=O)NC(Cc2cccs2)C(=O)O)c([N+](=O)[O-])cc1OC (centres undefined) ... > 100 µM
CC(C)S1=C2C(=O)CC(C)(C)CC2=Nc2ccccc21 (centres undefined) ... > 100 µM
CCc1n[nH]c(=O)n1-c1ccncc1 ... > 100 µM
O=C1Cc2c([nH]c3c(Br)cccc23)-c2ccccc2N1 ... > 100 µM
NNC(=O)COc1nc(-c2cccs2)nc2ccc(I)cc12 ... > 100 µM
Cn1c(=O)c2c(n(C)c1=O)n1c(=O)c3ccccc3nc1n2C ... > 100 µM
O=C(Cn1c(-c2ccccc2)cc2ccccc21)N1CCOCC1 ... > 100 µM

Record TGI per entry; entries follow.
1. CSC(=NCCCN=C(NS(=O)(=O)c1ccc(Cl)cc1)SC)NS(=O)(=O)c1ccc(Cl)cc1
2. O=C(Nc1cccc(C(F)(F)F)c1)Nc1cc(S(=O)(=O)NC2CC2)ccc1-c1ccsc1

A.
1: 35.2 µM; 2: 18.6 µM

Can you give me TGI for all of these, one by one?
1. O=C1Cc2c(-c3ccccc3)cc(-c3ccc(Cl)cc3)nc2-c2ccccc2N1
2. O=C(/C=C/N1CCN(c2cccc(Cl)c2)CC1)c1ccc(Cl)cc1

A.
1. > 57.7 µM
2. > 100 µM

---

Please go through the items and note down their GI50.
system: NCI/ADR-RES ovarian; test: NCI tumour cell line growth inhibition, 48 h

Solved entries:
O=C(NCc1cccnc1)c1ccc([N+](=O)[O-])o1 ... 1660 nM
CCNc1nc(-c2ccc(Cl)c(OC)c2)c(-c2ccnc(NCCNS(=O)(=O)c3ccc(Cl)cc3)n2)s1 ... 3510 nM
COC(=O)C(NC(=O)c1ccccc1)c1ccc(OC)c(I)c1 (stereo not given) ... 36400 nM

Provide GI50 for all items below, preserving their order.
1. O=C(c1ccccc1)c1ccc(N2C(=O)C3C4c5ccccc5C(/C=C/C(=O)c5ccccn5)(c5ccccc54)C3C2=O)cc1 (stereo not given)
2. Oc1ccc(CCNc2nc3ccccc3c3[nH]c4ccccc4c23)cc1

A.
2680 nM
2680 nM

---

system: XF 498 CNS; experiment: NCI tumour cell line growth inhibition, 48 h
Field: TGI. Provide a value for each of the compounds that follow.

Take a look at these entries with their results.
Cc1c(N)nc(C2CC(=O)N2CC(N)C(N)=O)nc1C(=O)NC(C(=O)NC(C)C(O)C(C)C(=O)NC(C(=O)NCCc1nc(-c2nc(C(=O)NCCNCC(C)O)cs2)cs1)C(C)O)C(OC1OC(CO)C(O)C(O)C1OC1OC(CO)C(O)C(OC(N)=O)C1O)c1cnc[nH]1 (stereo not drawn) ... > 22.4 µM
Cc1cc2c(=O)cc(-c3ccncc3)oc2c(C(=O)O)c1C ... > 100 µM
Cc1c(C(=O)C/C(=N/NC(=O)CC#N)C(N)=O)[n+](=O)c2ccccc2n1[O-] ... > 100 µM
Cn1nc(-c2ccccc2)c(C(=O)/C=C/c2ccccc2)c(N2CCCC2)c1=O ... 39.9 µM
Nc1cc(O)c2cc(N=Nc3ccc(N=Nc4ccc(N=Nc5ccc6cc(S(=O)(=O)O)cc(S(=O)(=O)O)c6c5)c5ccccc45)c4cc(S(=O)(=O)O)ccc34)c(S(=O)(=O)O)cc2c1 ... > 100 µM
Cc1c(N(Cc2ccccc2)Cc2ccccc2)nc(S(C)(=O)=O)nc1S(C)(=O)=O ... 3.16 µM
CCCCCCCCCCCCCCCC(=O)NCC(OCC)OCC ... > 100 µM

Now consider the entry below.
Q. Given `O=C1NC2(CCCCC2)C2=C1CCCCC2` , state its recorded TGI.
A. > 100 µM

---

test system: MALME-3M melanoma; assay: NCI tumour cell line growth inhibition, 48 h
Measured metric: TGI

Could I get TGI for every one of these entries?
1. COC(=O)C1=C(C)N(NC(=O)Nc2ccccc2)C2(N)N(NC(=O)Nc3ccccc3)C(C)=C(C(=O)OC)C12C(=O)OC (stereo not given)
2. COc1ccc(-c2ccc(/C=N/n3c(COc4ccc(Cl)c(C)c4)nn(CN4CCOCC4)c3=S)o2)c([N+](=O)[O-])c1
3. N#Cc1c2c(c(Nc3ccc(Cl)cc3)n3c1nc1ccccc13)CCCC2
4. CCOC(=O)NC/C=C/CO
5. O=C(CO[N+](=O)[O-])OCC(=O)c1ccccc1

A.
> 100 µM
43.1 µM
> 100 µM
> 100 µM
> 100 µM

---

Assignment: determine reported TGI for the given molecules.
test system: HCT-116 colon; experiment: NCI tumour cell line growth inhibition, 48 h

CC(C)[C@H](NC(=O)OCc1ccccc1)C(=O)N[C@H](/C=C/C(=O)OC(C)(C)C)CO ... > 100 µM
CC(C)c1nc(Cl)c(Cl)c(Cl)n1 ... 14.2 µM
CCOC(=O)/C(=C/c1ccc[nH]1)P(=O)(OCC)OCC ... > 100 µM

Dear colleague, could you send me TGI for each of the items below? Thanks.
1. O=C(/C=C/c1ccc(OCC(=O)N2CCN(c3ccccc3)CC2)cc1)c1ccccc1
2. CCc1c[nH]c2ncnc(N3CC[C@](N)(CNC(=O)c4ccc(F)cc4F)C3)c12
3. Cc1c2cc[n+](C)cc2c(C)c2c1[nH]c1ccc(Oc3ccccc3)cc12
4. Cn1c(=O)c(C#N)c(O)c2cc3ccccc3nc21
5. COc1c(-c2nc3nc(N4CCN(C)CC4)ccc3[nH]2)cc(OC)c2c1nc(CCl)n2C
6. CC(=O)OCC1OC(OC(C)=O)C(NC#N)C(OC(C)=O)C1OC(C)=O (stereo unspecified)
7. COC(=O)C1=C(C)C(=O)C2(CCCCCC2C(=O)OC)C1 (stereo unspecified)

A.
1: > 56.6 µM; 2: > 100 µM; 3: > 100 µM; 4: > 100 µM; 5: > 100 µM; 6: > 100 µM; 7: > 100 µM

Q. For the molecule shown here, CN1OC(CO)CC12C1CC3CC(C1)CC2C3 (stereo unspecified) , give the reported TGI.
A. > 100 µM

---

For each entry below, report its TGI value.
test system: RXF 393 renal; experiment: NCI tumour cell line growth inhibition, 48 h
One number for each entry, in µM.

Check out these entries, answers already filled in.
Nc1ccc(N)c2c1C(=O)c1cccc([N+](=O)[O-])c1C2=O ... 54.9
CCCCN1/C(=N/Nc2n[nH]c(=O)c3ccccc23)SCC1c1ccc(Cl)cc1 (stereo unspecified) ... 63.1

// moving on: another record for TGI
Q. # TGI lookup, item `CCOC(=O)c1c(SCCN(CC)CC)n(-c2ccccc2)c(=S)n(-c2ccccc2)c1=O`
A. 3.28

---

tested on: MDA-MB-435
So I've got a bunch of compounds here, and I need their GI50 values.

Cn1c(=O)c(Oc2ccc(F)cc2F)cc2cnc(NC3CCC(O)CC3)nc21 (stereo not given) ... > 25 µM
Oc1ccc(/C=N/Nc2nnc(N/N=C/c3ccc(O)cc3O)c3ccccc23)c(O)c1 ... 0.587 µM
O=C(Nc1cccc(C(F)(F)F)c1)Nc1cc(S(=O)(=O)NC2CC2)ccc1-c1ccsc1 ... 3.61 µM
Clc1ccc(N=CNc2ccc(-c3nc4ccccc4[nH]3)cc2)cc1 ... 6.88 µM

Consider the additional compound presented here.
Q. State the recorded GI50 for this entry: `CCc1c[nH]c2ncnc(N3CC[C@](N)(CNC(=O)c4ccc(F)cc4F)C3)c12`
A. 12.8 µM

---

I'd be grateful if you could share measured GI50 for these entries.
test system: SW-620 colon; assay: NCI tumour cell line growth inhibition, 48 h

The examples below pair each entry with its known result.
OCCn1c(-c2ccncc2)c(-c2ccc(F)cc2)c2ncccc21 ... > 25 µM
CCc1c[nH]c2ncnc(N3CC[C@](N)(CNC(=O)c4ccc(F)cc4F)C3)c12 ... 23.1 µM
O=C(NCc1cccnc1)c1ccc([N+](=O)[O-])o1 ... 1.47 µM
Cc1c(N)nc(C2CC(=O)N2CC(N)C(N)=O)nc1C(=O)NC(C(=O)NC(C)C(O)C(C)C(=O)NC(C(=O)NCCc1nc(-c2nc(C(=O)NCCNCC(C)O)cs2)cs1)C(C)O)C(OC1OC(CO)C(O)C(O)C1OC1OC(CO)C(O)C(OC(N)=O)C1O)c1cnc[nH]1 (configuration not stated) ... > 50 µM
COc1cccc2c(Nc3ccc(C(=O)NCCN4CCNCC4)cc3)cc(-c3ccccc3)nc12 ... 29 µM

Required: GI50, one value per compound below.
1. O=C1C(=O)c2c(ccc3ccccc23)-c2ccccc21
2. CC(=O)Nc1ccc(C(=O)COc2cccc(/C=C3\CCc4ccccc4C3=O)c2)cc1
3. COc1ccc(Cl)cc1Nc1nc(C(F)(F)F)ccc1C(=O)N/N=C/c1ccc(Cl)cc1
4. Nc1ccc(N)c2c1C(=O)c1cccc([N+](=O)[O-])c1C2=O

A.
1.96 µM
3.65 µM
8.2 µM
2.41 µM

Parameters: items (list). Returns: GI50 for each item.
1. CCNc1nc(-c2ccc(Cl)c(OC)c2)c(-c2ccnc(NCCNS(=O)(=O)c3ccc(Cl)cc3)n2)s1
2. CC(=O)OC1CCC2(C)C(=CCC3C4CC(CN5CC5)C(=O)C4(C)CCC32)C1 (configuration not stated)

A.
1: 4.22 µM; 2: 3.17 µM

Q. Test system SW-620 colon; read-out GI50; what value for `CCC(=C(c1ccc(OCCN(CC)CC)cc1)c1ccc(OCCN(CC)CC)cc1)c1ccc(Cl)cc1` ?
A. 0.572 µM
